Every entry's value here was drawn from patent US20150119394A1.

Reported IC50 values follow for various compounds
biological target: intracellular kinase domain of human IGF-1R (GST fusion protein) (Homo sapiens); construct: IGFRK and IRK enzyme used for the assay was intracellular kinase domain of human IGF-1R; GST; made in house; experiment: In vitro IGF-1R kinase assay (HTRF); type: biochemical; conditions: ATP 20 μM, IGFRK 0.25 nM
Sequence (P08069 999-1274 limits assumed): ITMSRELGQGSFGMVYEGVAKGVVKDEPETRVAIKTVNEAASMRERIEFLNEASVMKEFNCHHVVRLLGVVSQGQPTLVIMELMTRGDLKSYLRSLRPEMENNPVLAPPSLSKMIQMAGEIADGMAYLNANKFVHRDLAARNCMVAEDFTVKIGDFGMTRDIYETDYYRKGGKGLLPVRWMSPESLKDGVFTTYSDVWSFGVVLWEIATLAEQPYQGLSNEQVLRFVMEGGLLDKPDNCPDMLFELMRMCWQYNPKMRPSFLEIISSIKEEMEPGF
Give a bare numeral; the unit nM is implied.

NC(=O)c1[nH]c2ccc(Cl)cc2c1S(=O)(=O)N1CCO[C@H](COc2cc3ccccc3nn2)C1
136

Q: Quick one: IC50 of Cc1ccccc1-c1cccc(OC[C@@H]2CN(S(=O)(=O)c3c(C(N)=O)[nH]c4ccc(Cl)cc34)CCO2)c1 ?
Result: 199
